Source listed as the supplement of paper PMC12764529.

PROCEDURE DETAILS: folding stability dG unfold from chymotrypsin proteolysis; higher = more stable
MEASURED PROPERTY: folding stability dG unfold (kcal/mol)

1) SAGGSAGGSKTYKIKVEKLEDGTYKLKIIDKKTKKEYEITISKKNLPKIKEIKITKNGKIEIKSAGGSAGGS [r20_11_TrROS_Hall]; 3.08
2) SAGGSVFESEKDLRVEVYKIKVGTTLGKEKNGKPKKPKFKEKEVLVVKVEVPLEDGTTLSAEFTFGSAGGSA [r2_218_TrMRF]; 3.24
3) SAGGDPEEQNKMMERMEKMKPIEPEPVRIPNGIEIEYWPAYGFVEIETWYRDPDGEPKPIGEGWVPVSAGGS [r16_243_TrROS]; 0.286
4) SAGGSAGGSAGGMMRIRIKIYNVETGEWKEIEIEVPESVKEITLEIELPEGWRIVEIEVESAGGSAGGSAGG [r7_687_TrROS_Hall]; 5.22
5) SAGGSAGGSFPLDEIRKFAKKLGNPFIEIEPVKPHVYRIKIYNKKNGKKKEFPIYLDEDGKIMSAGGSAGGS [r12_170_TrROS]; 1.27
6) SAGGSAGGSKLEEILKKLPPNAKITIEKDEETNVYTITITNKNGEKYTFTFSKEEVKKLLEKLSAGGSAGGS [r12_174_TrROS_Hall]; 4.76
7) SAGGSSITVPYPEGYEITVEVFPNYATITTKTPSSTLTKTVSFSTPVTVKTPSDKPVTINVPSPEVSAGGSA [r2_57_JUSTAS]; 0.533
